Assay: Fraction unbound in mouse plasma
Format: ADME, cell-free
Listed next: entries and their corresponding fraction unbound.
readout: fraction unbound

C[C@@H](Nc1cc(F)cc(F)c1)c1cc(C(=O)N(C)C)cn2c(=O)cc(N3CCOCC3)nc12 = 0.047
CC(Nc1cccc(Cl)c1F)c1cc(C(=O)NCCN(C)C)cn2c(=O)cc(N3CCOCC3)nc12 (single isomer, unassigned; (-)) = 0.016
CC(Nc1ccc(F)c(F)c1)c1cc(C(=O)N(C)C)cn2c(=O)cc(N3CCOCC3)nc12 (single isomer, unassigned; (-)) = 0.087
CC(Nc1ccc(F)cc1)c1cc(C(=O)N(C)C)cn2c(=O)cc(N3CCOCC3)nc12 (single isomer, unassigned; (-)) = 0.12
